B1: ADD1 (parent)
chain: GEGTGSPPKWQIGEQEFEALMRML

- Variants of: B1
- testName: protein stability index of a GFP-peptide fusion (GPS, HEK-293T) (PSI 1-6); higher = more stable;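 also: lentivirally expressed fusions sorted by FACS into six bins by GFP to DsRed ratio, PSI derived from sequencing read proportions per bin multiplied by bin number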
- measurementParameters: c terminus: a fixed tail appended
resultType: protein stability index
Hey, just send me the number, nothing else.

sequenceText | resultType | reportedResult
GEGEGSPPKWQIGEQEFEALMRML [T4E] | protein stability index | 3.51
GEGTGSPPKWQPGEQEFEALMRML [I12P] | protein stability index | 3.72
GEGTMSPPKWQIGEQEFEALMRML [G5M] | protein stability index | 2.4

Task: Return reported protein stability index; argument: GEGTGSPPKWQIGEQHFEALMRML [E16H]
Output: 2.8

Task: Now consider GEGTGSPPKWQIGEQEFEALFRML [M21F] and answer again.
Output: 3.47

Task: Now consider GEGTDSPPKWQIGEQEFEALMRML [G5D] and answer again.
Output: 3.15
